Consider the following variants; for each one, report its enrichment.
B1: NLV2 TCR alpha chain (CDR3α only) (parent)
chain: AGPMKTSYDKVI

Variants of: B1
Test: T-Switch: Jurkat TCRβ−/− cells expressing a CDR3 saturation-mutagenesis library, stained with two peptide-HLA-A*02:01 tetramers (original and novel peptide) plus anti-CD3, FACS-sorted into four gates, gDNA sequenced
Conditions: with both tetramers (double-negative gate, binds neither): HLA-A*02:01 with … and with …, tetramers 1 µg/mL, 30 min on ice, SP, DP and SW gates expanded about 10 days between rounds ('two to three rounds of selection' in the Methods), gate DN: OPPOSITE: higher = more of the variant in the gate that binds neither peptide = LESS binding (or no expression; inferred). Fold enrichment of the CDR3 variant in one FACS gate of a two-tetram, unresolved parent, parent is a CDR3 fragment, scale: fold enrichment, numbering: sequential-on-construct, sequence starts at 1

// worked examples, enrichment included
MUTATION LABEL	VALUE REPORTED
[…] (CDR3 as printed); P3F derived by comparing it with the table's wild-type CDR3 AGPMKTSYDKVI	1.32
[…] (CDR3 as printed); P3A derived by comparing it with the table's wild-type CDR3 AGPMKTSYDKVI	1.21

Provide enrichment for all items below, preserving their order.
1. […] (CDR3 as printed); G2D derived by comparing it with the table's wild-type CDR3 AGPMKTSYDKVI
2. […] (CDR3 as printed); V11T derived by comparing it with the table's wild-type CDR3 AGPMKTSYDKVI
3. […] (CDR3 as printed); T6P derived by comparing it with the table's wild-type CDR3 AGPMKTSYDKVI
4. […] (CDR3 as printed); S7I derived by comparing it with the table's wild-type CDR3 AGPMKTSYDKVI
5. […] (CDR3 as printed); K5P derived by comparing it with the table's wild-type CDR3 AGPMKTSYDKVI

A:
1. 1.02
2. 1.12
3. 0.299
4. 1.04
5. 0.356

Provide enrichment for all items below, preserving their order.
1. […] (CDR3 as printed); P3W derived by comparing it with the table's wild-type CDR3 AGPMKTSYDKVI
2. […] (CDR3 as printed); K5G derived by comparing it with the table's wild-type CDR3 AGPMKTSYDKVI

A:
1: 0.887; 2: 0.602

Provide enrichment for all items below, preserving their order.
1. […] (CDR3 as printed); V11W derived by comparing it with the table's wild-type CDR3 AGPMKTSYDKVI
2. […] (CDR3 as printed); Y8P derived by comparing it with the table's wild-type CDR3 AGPMKTSYDKVI
3. […] (CDR3 as printed); M4W derived by comparing it with the table's wild-type CDR3 AGPMKTSYDKVI

A:
1: 0.939; 2: 1.08; 3: 0.861

Cited source for all entries: paper PMC13397619
